The reported numbers originate from patent US20240252488A1.

- system.tested: MLKL (Homo sapiens, UniProt Q8NB16)
- Sequence (Q8NB16 whole entry): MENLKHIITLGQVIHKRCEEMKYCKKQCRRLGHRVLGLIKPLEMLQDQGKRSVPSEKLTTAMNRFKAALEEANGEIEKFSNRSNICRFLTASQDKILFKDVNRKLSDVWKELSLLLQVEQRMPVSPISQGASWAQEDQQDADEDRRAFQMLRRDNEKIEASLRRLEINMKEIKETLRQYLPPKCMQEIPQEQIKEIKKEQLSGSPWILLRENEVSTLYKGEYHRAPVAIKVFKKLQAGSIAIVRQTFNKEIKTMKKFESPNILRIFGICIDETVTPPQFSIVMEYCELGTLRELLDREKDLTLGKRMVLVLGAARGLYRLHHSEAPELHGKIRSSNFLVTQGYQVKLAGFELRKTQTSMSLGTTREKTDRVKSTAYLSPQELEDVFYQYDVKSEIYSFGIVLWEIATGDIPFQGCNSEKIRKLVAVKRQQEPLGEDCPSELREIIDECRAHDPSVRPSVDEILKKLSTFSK
measured.parameter: Kd (nM)

[[record]]
compound = "Nc1ncc(-c2cnn(C3CCN(CCCN4CCN(C(=O)CNc5ccc6c(c5)C(=O)N(C5CCC(=O)NC5=O)C6=O)CC4)CC3)c2)nc1C(=O)OC(C(=O)Nc1ccc(F)cc1)c1ccccc1 (centres unmarked) [TDH-242]"
system_tested = "MLKL (Homo sapiens, UniProt Q8NB16)"
experimental_value = 2.5

[[record]]
compound = "Nc1ncc(-c2cnn(C3CCN(CCOCCOCCOCCNC(=O)COc4cccc5c4C(=O)N(C4CCC(=O)NC4=O)C5=O)CC3)c2)nc1C(=O)O[C@@H](C(=O)Nc1ccc(F)cc1)c1ccccc1 (some centres unmarked) [TDH-155]"
system_tested = "MLKL (Homo sapiens, UniProt Q8NB16)"
experimental_value = 9.5

[[record]]
compound = "Nc1ncc(-c2cnn(C3CCN(C(=O)CCCCCC#Cc4cccc5c4CN(C4CCC(=O)NC4=O)C5=O)CC3)c2)nc1C(=O)O[C@@H](C(=O)Nc1ccc(F)cc1)c1ccccc1 (some centres unmarked) [TDH-423]"
system_tested = "MLKL (Homo sapiens, UniProt Q8NB16)"
experimental_value = 9.8

[[record]]
compound = "Nc1ncc(-c2cnn(C3CCN(C(=O)C4CCN(C(=O)CNc5cccc6nnn(C7CCC(=O)NC7=O)c(=O)c56)CC4)CC3)c2)nc1C(=O)O[C@@H](C(=O)Nc1ccc(F)cc1)c1ccccc1 (some centres unmarked) [TDH-413]"
system_tested = "MLKL (Homo sapiens, UniProt Q8NB16)"
experimental_value = 0.92

[[record]]
compound = "Nc1ncc(-c2cnn(C3CCN(CCOCCOCCNC(=O)C4CCN(c5ccc6c(c5)C(=O)N(C5CCC(=O)NC5=O)C6=O)CC4)CC3)c2)nc1C(=O)N[C@@H](C(=O)Nc1ccc(F)cc1)c1ccccc1 (some centres unmarked) [TDH-214]"
system_tested = "MLKL (Homo sapiens, UniProt Q8NB16)"
experimental_value = 180

